Test system: HL60 (promyeocytic leukaemia)
PROTOCOL SUMMARY: MTS assay, inhibition of cell proliferation, HL60
ASSAY CONDITIONS: read-out: Cytotoxicity (IC50); HL60; MTS; Table 2
pIC50: −log10 of the molar value.
PROPERTY: pIC50

1. COc1cc(OC)c2c(c1)OC1(c3ccc(Br)cc3)C(c3ccccc3)CC(NS(C)(=O)=O)C21O (stereo not shown) [FL24]
6.24
2. COc1cc(OC)c2c(c1)OC1(c3ccc(Br)cc3)C(c3ccccc3)CC(NC=O)C21O (stereo not shown) [FL22]
7.36
3. COc1cc(OC)c2c(c1)OC1(c3ccc(Br)cc3)C(c3ccccc3)CC(NS(C)(=O)=O)C21O (stereo not shown) [FL25]
7.80
4. COc1cc(OC)c2c(c1)OC1(c3ccc(Br)cc3)C(c3ccccc3)CC(NC=O)C21O (stereo not shown) [FL23]
8.70

The reported measurements were obtained from patent US20120101153A1.
